For each of the molecules below, state its RLU.
Biological target: human TAS2R14 (Homo sapiens)
Construct: expressed in transfected cells; host or cells: HEK293T-Gα16gust44
Assay: Calcium imaging assay (FLIPR), HEK293T-Gα16gust44 cells transfected with human TAS2R14
Format: cell-based
Details: TAS2R14 trace; Time (s) 347.578 (Taurocholic Acid 347.563, Chenodeoxycholic Acid 347.546)
Write down the value, and be sure its unit follows.

Record C[C@H](CCC(=O)NCCS(=O)(=O)O)[C@H]1CC[C@H]2[C@@H]3[C@H](O)C[C@@H]4C[C@H](O)CC[C@]4(C)[C@H]3C[C@H](O)[C@]12C / human TAS2R14 (Homo sapiens), RLU recorded as 48.7046 RLU

Record C[C@H](CCC(=O)O)[C@H]1CC[C@H]2[C@@H]3[C@H](O)C[C@@H]4C[C@H](O)CC[C@]4(C)[C@H]3C[C@H](O)[C@]12C / human TAS2R14 (Homo sapiens), RLU recorded as 60.0955 RLU

Record C[C@H](CCC(=O)NCCS(=O)(=O)O)[C@H]1CC[C@H]2[C@@H]3CC[C@@H]4C[C@H](O)CC[C@]4(C)[C@H]3CC[C@]12C / human TAS2R14 (Homo sapiens), RLU recorded as -84.764 RLU

Record C[C@H](CCC(=O)O)[C@H]1CC[C@H]2[C@@H]3[C@H](O)C[C@@H]4C[C@H](O)CC[C@]4(C)[C@H]3CC[C@]12C / human TAS2R14 (Homo sapiens), RLU recorded as 164.841 RLU

Record C[C@H](CCC(=O)NCC(=O)O)[C@H]1CC[C@H]2[C@@H]3[C@H](O)C[C@@H]4C[C@H](O)CC[C@]4(C)[C@H]3C[C@H](O)[C@]12C / human TAS2R14 (Homo sapiens), RLU recorded as 131.554 RLU

* * *

Target: human TAS2R4 (Homo sapiens)
Construct: expressed in transfected cells; host or cells: HEK293T-Gα16gust44
Test: Calcium imaging assay (FLIPR), HEK293T-Gα16gust44 cells transfected with human TAS2R4; note: test concentration or dose not given here
Type: cell-based
Conditions: Time (s) 92.781 (TCA, TLCA: 92.782)
Label key: true (1) means RLU, fluorescence trace under 600 RLU; false (0) means RLU, fluorescence trace of 600 RLU or more.

Query: hey, is RLU, fluorescence trace for C[C@H](CCC(=O)NCCS(=O)(=O)O)[C@H]1CC[C@H]2[C@@H]3CC[C@@H]4C[C@H](O)CC[C@]4(C)[C@H]3CC[C@]12C [Taurolithocholic Acid, taurolithocholic acid] lower than 600 RLU or not?
Response: true (1)

Query: hey, is RLU, fluorescence trace for C[C@H](CCC(=O)NCC(=O)O)[C@H]1CC[C@H]2[C@@H]3[C@H](O)C[C@@H]4C[C@H](O)CC[C@]4(C)[C@H]3C[C@H](O)[C@]12C [Glycocholic Acid, glycocholic acid] lower than 600 RLU or not?
Response: false (0)

Query: hey, is RLU, fluorescence trace for C[C@H](CCC(=O)NCCS(=O)(=O)O)[C@H]1CC[C@H]2[C@@H]3[C@H](O)C[C@@H]4C[C@H](O)CC[C@]4(C)[C@H]3C[C@H](O)[C@]12C [Taurocholic Acid, taurocholic acid] lower than 600 RLU or not?
Response: false (0)

Query: hey, is RLU, fluorescence trace for C[C@H](CCC(=O)O)[C@H]1CC[C@H]2[C@@H]3CC[C@@H]4C[C@H](O)CC[C@]4(C)[C@H]3C[C@H](O)[C@]12C [Deoxycholic Acid, deoxycholic acid] lower than 600 RLU or not?
Response: true (1)

Query: hey, is RLU, fluorescence trace for C[C@H](CCC(=O)O)[C@H]1CC[C@H]2[C@@H]3[C@@H](O)C[C@@H]4C[C@H](O)CC[C@]4(C)[C@H]3CC[C@]12C [Ursodeoxycholic Acid, ursodeoxycholic acid] lower than 600 RLU or not?
Response: true (1)

* * *

Target: human TAS2R1 (Homo sapiens, UniProt Q9NYW7)
Construct: expressed in transfected cells; host or cells: HEK293T-Gα16gust44
Sequence (Q9NYW7 whole entry): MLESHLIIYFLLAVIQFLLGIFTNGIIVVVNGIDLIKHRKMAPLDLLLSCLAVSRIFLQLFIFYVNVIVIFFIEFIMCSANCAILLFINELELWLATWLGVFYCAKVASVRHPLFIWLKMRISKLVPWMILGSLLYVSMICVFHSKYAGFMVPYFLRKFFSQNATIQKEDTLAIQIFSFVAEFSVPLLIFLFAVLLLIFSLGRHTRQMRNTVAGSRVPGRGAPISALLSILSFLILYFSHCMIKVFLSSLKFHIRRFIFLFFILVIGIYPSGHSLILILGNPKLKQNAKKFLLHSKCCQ
Assay: Calcium imaging assay (FLIPR), HEK293T-Gα16gust44 cells transfected with human TAS2R1
Type: cell-based
Details: Time 32.781 s
property label: RLU (RLU)
// return numeric value only (unit: RLU, not printed)

# compound C[C@H](CCC(=O)O)[C@H]1CC[C@H]2[C@@H]3CC[C@@H]4C[C@H](O)CC[C@]4(C)[C@H]3C[C@H](O)[C@]12C ; its RLU = 224.68

# compound C[C@H](CCC(=O)NCCS(=O)(=O)O)[C@H]1CC[C@H]2[C@@H]3[C@H](O)C[C@@H]4C[C@H](O)CC[C@]4(C)[C@H]3C[C@H](O)[C@]12C ; its RLU = 222.063

# compound C[C@H](CCC(=O)NCC(=O)O)[C@H]1CC[C@H]2[C@@H]3[C@H](O)C[C@@H]4C[C@H](O)CC[C@]4(C)[C@H]3C[C@H](O)[C@]12C ; its RLU = 311.082

# compound C[C@H](CCC(=O)NCCS(=O)(=O)O)[C@H]1CC[C@H]2[C@@H]3CC[C@@H]4C[C@H](O)CC[C@]4(C)[C@H]3CC[C@]12C ; its RLU = 270.143

* * *

Target: human TAS2R4 (Homo sapiens)
Construct: expressed in transfected cells; host or cells: HEK293T-Gα16gust44
Sequence (Q9NYW5 1-299): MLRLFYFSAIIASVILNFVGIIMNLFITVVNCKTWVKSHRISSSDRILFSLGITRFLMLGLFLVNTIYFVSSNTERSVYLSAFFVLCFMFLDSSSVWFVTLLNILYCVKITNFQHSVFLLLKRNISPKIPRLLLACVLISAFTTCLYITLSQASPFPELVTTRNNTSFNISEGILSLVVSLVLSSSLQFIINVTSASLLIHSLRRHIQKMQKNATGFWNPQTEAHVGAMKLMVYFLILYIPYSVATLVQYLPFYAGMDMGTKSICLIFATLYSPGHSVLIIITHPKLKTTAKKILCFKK
Assay: Calcium imaging assay (FLIPR), HEK293T-Gα16gust44 cells transfected with human TAS2R4; note: test concentration or dose not given here
Format: cell-based
Details: Time (s) 24.781 (TCA, TLCA: 24.782)
property label: RLU, fluorescence trace (RLU)
// return numeric value only (unit: RLU, not printed)

# compound C[C@H](CCC(=O)O)[C@H]1CC[C@H]2[C@@H]3[C@H](O)C[C@@H]4C[C@H](O)CC[C@]4(C)[C@H]3C[C@H](O)[C@]12C ; its RLU, fluorescence trace = 16.2873

# compound C[C@H](CCC(=O)O)[C@H]1CC[C@H]2[C@@H]3[C@@H](O)C[C@@H]4C[C@H](O)CC[C@]4(C)[C@H]3CC[C@]12C ; its RLU, fluorescence trace = 13.5346

# compound C[C@H](CCC(=O)NCCS(=O)(=O)O)[C@H]1CC[C@H]2[C@@H]3CC[C@@H]4C[C@H](O)CC[C@]4(C)[C@H]3CC[C@]12C ; its RLU, fluorescence trace = 4.9

# compound C[C@H](CCC(=O)NCC(=O)O)[C@H]1CC[C@H]2[C@@H]3[C@H](O)C[C@@H]4C[C@H](O)CC[C@]4(C)[C@H]3C[C@H](O)[C@]12C ; its RLU, fluorescence trace = 91.6518

# compound C[C@H](CCC(=O)NCCS(=O)(=O)O)[C@H]1CC[C@H]2[C@@H]3[C@H](O)C[C@@H]4C[C@H](O)CC[C@]4(C)[C@H]3C[C@H](O)[C@]12C ; its RLU, fluorescence trace = 34.1327

# compound C[C@H](CCC(=O)O)[C@H]1CC[C@H]2[C@@H]3CC[C@@H]4C[C@H](O)CC[C@]4(C)[C@H]3C[C@H](O)[C@]12C ; its RLU, fluorescence trace = -40.8819

* * *

Biological target: human TAS2R14 (Homo sapiens, UniProt Q9NYV8)
Construct: expressed in transfected cells; host or cells: HEK293T-Gα16gust44
Sequence (Q9NYV8 1-317): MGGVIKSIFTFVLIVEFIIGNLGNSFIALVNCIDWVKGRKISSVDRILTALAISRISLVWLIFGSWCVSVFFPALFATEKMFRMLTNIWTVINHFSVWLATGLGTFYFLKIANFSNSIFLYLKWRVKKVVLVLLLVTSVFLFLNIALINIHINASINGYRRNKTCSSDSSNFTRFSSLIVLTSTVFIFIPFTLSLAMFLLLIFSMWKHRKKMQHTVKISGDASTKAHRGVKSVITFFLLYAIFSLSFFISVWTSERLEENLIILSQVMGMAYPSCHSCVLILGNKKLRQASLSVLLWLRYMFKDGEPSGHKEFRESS
Test: Calcium imaging assay (FLIPR), HEK293T-Gα16gust44 cells transfected with human TAS2R14
Assay type: cell-based
Details: TAS2R14 trace; Time (s) 54.797 (Chenodeoxycholic Acid 54.781)
For each of the compounds below, state its RLU.
// return numeric value only (unit: RLU, not printed)

Record C[C@H](CCC(=O)NCCS(=O)(=O)O)[C@H]1CC[C@H]2[C@@H]3[C@H](O)C[C@@H]4C[C@H](O)CC[C@]4(C)[C@H]3C[C@H](O)[C@]12C [Taurocholic Acid, taurocholic acid] / human TAS2R14 (Homo sapiens, UniProt Q9NYV8), RLU recorded as 459.728

Record C[C@H](CCC(=O)NCCS(=O)(=O)O)[C@H]1CC[C@H]2[C@@H]3CC[C@@H]4C[C@H](O)CC[C@]4(C)[C@H]3CC[C@]12C [Taurolithocholic Acid, taurolithocholic acid] / human TAS2R14 (Homo sapiens, UniProt Q9NYV8), RLU recorded as 148.335

Record C[C@H](CCC(=O)O)[C@H]1CC[C@H]2[C@@H]3[C@H](O)C[C@@H]4C[C@H](O)CC[C@]4(C)[C@H]3CC[C@]12C [Chenodeoxycholic Acid, chenodeoxycholic acid] / human TAS2R14 (Homo sapiens, UniProt Q9NYV8), RLU recorded as 484

Record C[C@H](CCC(=O)NCC(=O)O)[C@H]1CC[C@H]2[C@@H]3[C@H](O)C[C@@H]4C[C@H](O)CC[C@]4(C)[C@H]3C[C@H](O)[C@]12C [Glycocholic Acid, glycocholic acid] / human TAS2R14 (Homo sapiens, UniProt Q9NYV8), RLU recorded as 404.11

Record C[C@H](CCC(=O)O)[C@H]1CC[C@H]2[C@@H]3[C@H](O)C[C@@H]4C[C@H](O)CC[C@]4(C)[C@H]3C[C@H](O)[C@]12C [Cholic Acid, cholic acid] / human TAS2R14 (Homo sapiens, UniProt Q9NYV8), RLU recorded as 600.804
